molecular target: T1, LILRB4 (Beijing ACROBiosystems, article number LI4-H52H7, 6xHis label) (human, UniProt Q8NHJ6 22-259); assay: SPR, BIACORE 8K; antibody captured on Protein A chip, LILRB4-6xHis as analyte
T1 construct: Analyte (mobile phase) in the BIACORE 8K assay; also called Human LILRB4; not shown: 6xHis label
The following binders are shown together with reported kon values.

Example entries and their recorded answers appear below.
BINDER	kon
humanized antibody RB4-G1-019 (antibody, human IgG1, kappa, V domains shown) VH: QVQLVQSGAEVKKPGASVKVSCKASGYTFTSYWMHWVRQAPGQGLEWMGEINPSNGRTNYNEKFKSRVTLTVDKSTSTVYMELSSLRSEDTAVYYCARDRYDEGNAMDYWGQGTTVTVSS VL: DIQMTQSPSSLSASVGDRVTITCRASQDITNYLNWYQQKPGKAPKLLIYYTSRLHSGVPSRFSGSGSGTEYTLTISSLQPDDFATYYCQQGDTLPRTFGQGTRLEIKR	1.24e+06 M⁻¹ s⁻¹
humanized antibody RB4-G1-018 (antibody, human IgG1, kappa, V domains shown) VH: QVQLVQSGAEVKKPGASVKVSCKASGYTFTSYWMHWVRQAPGQGLEWIGEINPSNGRTNYNEKFKSRATLTVDKSTSTAYMELSSLRSEDTAVYYCARDRYDEGNAMDYWGQGTTVTVSS VL: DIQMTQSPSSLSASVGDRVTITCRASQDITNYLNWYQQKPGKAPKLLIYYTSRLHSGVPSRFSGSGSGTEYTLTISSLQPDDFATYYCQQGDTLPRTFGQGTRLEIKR	1.54e+06 M⁻¹ s⁻¹
humanized antibody RB4-G1-022 (antibody, human IgG1, kappa, V domains shown) VH: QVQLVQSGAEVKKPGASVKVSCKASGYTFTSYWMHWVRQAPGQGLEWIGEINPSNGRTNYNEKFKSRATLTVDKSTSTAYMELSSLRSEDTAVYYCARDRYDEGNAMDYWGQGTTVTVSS VL: DIQMTQSPSSLSASVGDRVTITCRASQDITNYLNWYQQKPGKAPKLLIYYTSRLHSGVPSRFSGSGSGTDYTFTISSLQPEDIATYYCQQGDTLPRTFGQGTRLEIKR	1.8e+06 M⁻¹ s⁻¹

Consider now this further binder.
Fill in the blank: the reported kon of humanized antibody RB4-G1-020 (antibody, human IgG1, kappa, V domains shown) VH: QVQLVQSGAEVKKPGASVKVSCKASGYTFTSYWMHWVRQAPGQGLEWMGEINPSNGRTNYNEKFKSRVTMTRDTSTSTVYMELSSLRSEDTAVYYCARDRYDEGNAMDYWGQGTTVTVSS VL: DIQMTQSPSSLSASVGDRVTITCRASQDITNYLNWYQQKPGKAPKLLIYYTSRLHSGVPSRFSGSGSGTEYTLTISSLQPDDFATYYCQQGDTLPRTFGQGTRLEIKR is ____.
2.53e+06 M⁻¹ s⁻¹

Value source: patent US20260250379A1
